Assignment: determine reported IC50 [pM] for RSV A2 Neutralization, Trial 5 for the given binders.
- Target Desc: RSV-F of RSV subtype A strain A2 (1540) (respiratory syncytial virus subtype A, …, UniProt P03420 26-574)
- Test Protocol: cell-based or functional assay
Numbers only, in pM.

H1H3589P (antibody, V domains shown) VH: EVQLVESGGGLVQPGGSLRLSCEASGFTFSTYWMSWVRQAPGKGLEWVANIKQDGSVKYFVDSVKGRFTVSRDNAKNSLYLQMNSLRAEDTALYHCARERHRGSYYGYYDGMDVWGQGTTVTVSS VL: DIQMTQSPSSLSASVGDRVTITCRASQNIDIYLNWYQERPGKAPNLLIYAASSLQSGVPSRFSGSGSGTDFTLTISSLQPEDFATYYCQQSYNTPFTFGGGTKVEIK : 300
Control I (palivizumab sequence) (antibody, V domains shown, also called Control 1; SYNAGIS) VH: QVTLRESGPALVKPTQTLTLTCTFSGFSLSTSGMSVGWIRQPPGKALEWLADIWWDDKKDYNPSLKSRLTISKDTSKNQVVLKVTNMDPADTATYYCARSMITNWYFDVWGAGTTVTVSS VL: DIQMTQSPSTLSASVGDRVTITCKCQLSVGYMHWYQQKPGKAPKLLIYDTSKLASGVPSRFSGSGSGTEFTLTISSLQPDDFATYYCFQGSGYPFTFGGGTKLEIKR : 160
Control II (motavizumab sequence) (antibody, V domains shown) VH: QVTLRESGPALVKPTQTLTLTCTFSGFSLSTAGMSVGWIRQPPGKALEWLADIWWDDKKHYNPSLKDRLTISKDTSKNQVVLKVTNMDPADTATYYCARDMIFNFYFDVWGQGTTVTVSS VL: DIQMTQSPSTLSASVGDRVTITCSASSRVGYMHWYQQKPGKAPKLLIYDTSKLASGVPSRFSGSGSGTEFTLTISSLQPDDFATYYCFQGSGYPFTFGGGTKVEIKR : 12

We now examine a further binder.
Hello, please tell me recorded IC50 [pM] for RSV A2 Neutralization, Trial 5 for this one: H1H3583P (antibody, V domains shown) VH: QVQLVQSGAEVKKSGSSVKVSCKASGGTFSSYAISWVRQAPGQGLEWMGGIIPIFGTGNYAQKFQGRVTITTDESTSTAYMELSSLRSEDTAVYYCARDSSSSPRYYGMDVWGHGTTVTVSS VL: EIVLTQSPATLSLSPGERATLSCRASQSVTSYLAWYQQKPGQAPRLLIYDVSKRATGIPARFSGSGSGTDFTLTISSLEPEDFATYYCQQRSNWPPTFGQGTRLEIK 50
